assayed-system: PAK1 (Homo sapiens)
Sequence (Q13153 whole entry): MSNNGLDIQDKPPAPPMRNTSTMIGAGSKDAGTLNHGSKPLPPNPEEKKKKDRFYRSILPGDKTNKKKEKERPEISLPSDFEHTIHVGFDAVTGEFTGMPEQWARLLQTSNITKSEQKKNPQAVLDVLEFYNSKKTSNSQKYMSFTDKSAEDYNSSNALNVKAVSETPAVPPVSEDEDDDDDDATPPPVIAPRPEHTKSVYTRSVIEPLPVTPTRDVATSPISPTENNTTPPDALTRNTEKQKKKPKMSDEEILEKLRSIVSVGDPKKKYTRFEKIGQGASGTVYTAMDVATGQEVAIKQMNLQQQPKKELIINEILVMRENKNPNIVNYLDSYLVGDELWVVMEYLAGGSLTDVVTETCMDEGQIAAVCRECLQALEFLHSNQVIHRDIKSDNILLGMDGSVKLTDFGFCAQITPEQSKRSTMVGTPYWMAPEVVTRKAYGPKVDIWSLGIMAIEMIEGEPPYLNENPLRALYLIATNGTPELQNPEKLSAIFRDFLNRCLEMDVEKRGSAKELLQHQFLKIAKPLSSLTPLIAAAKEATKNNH
experiment-notes: In vitro PAK inhibition assay (Z'-LYTE, SelectScreen), PAK1
Type: biochemical
condition-summary: read-out: PAK1 IC50
measurement-name: IC50

Q) Given the compound Cc1cncc(-c2ccc(-c3cc4cnc(N[C@H]5CCOC5)nc4n(CCN)c3=O)c(Cl)c2)n1 [Example 100] , what is its reported IC50?
A) 50 to 500 nM

Q) Repeat with CCn1c(=O)c(-c2ccc(-c3ccnnc3)cc2Cl)cc2cnc(N[C@@H]3CCOC3)nc21 [Example 62]
A) > 5000 nM

Q) Repeat with Cc1cncc(-c2ccc(-c3cc4cnc(NC5CCOCC5)nc4n(Cc4ccccc4)c3=O)c(Cl)c2)n1 [Example 34]
A) 50 to 500 nM

Q) Repeat with Cc1cncc(-c2ccc(-c3cc4cnc(N[C@H]5CCOC5)nc4n(CCCN(C)C)c3=O)c(Cl)c2)n1 [Example 102]
A) < 50 nM

Q) Repeat with CCn1c(=O)c(-c2ccc(-c3cncc(C)n3)cc2Cl)cc2cnc(NCCCOCCCN(C)C)nc21 [Example 130]
A) 50 to 500 nM

Q) Repeat with CCn1c(=O)c(-c2ccc(-c3nccnc3C)cc2Cl)cc2cnc(NC3CCN(C(C)=O)CC3)nc21 [Example 80]
A) 500 to 5000 nM

Q) Repeat with CCn1c(=O)c(-c2ccc(-c3cncc(C)n3)cc2Cl)cc2cnc(NC3CNC(=O)C3)nc21 (stereo not shown) [Example 66]
A) 50 to 500 nM
